# target.under.test: Neutrophil elastase (Homo sapiens)
# Sequence (P08246 whole entry): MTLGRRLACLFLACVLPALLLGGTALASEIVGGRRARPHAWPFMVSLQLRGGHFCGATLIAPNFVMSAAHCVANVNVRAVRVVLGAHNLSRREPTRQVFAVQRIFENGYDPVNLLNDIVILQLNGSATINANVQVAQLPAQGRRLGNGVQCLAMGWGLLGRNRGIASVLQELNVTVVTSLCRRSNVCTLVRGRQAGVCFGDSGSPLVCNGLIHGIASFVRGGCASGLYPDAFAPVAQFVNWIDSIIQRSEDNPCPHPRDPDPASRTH
# assay.notes: Human Neutrophil Elastase Assay: Compound buffer: 100 mM Tris, 500 mM NaCl, adjusted to pH 7.5; Assay buffer: 100 mM Tris, 500 mM NaCl, adjusted to pH 7.5, containing 0.01% BSA. Test compounds were prediluted in DMSO and subsequently in compound buffer (5% DMSO final). […] After inactivation of the enzyme, fluorescence intensities were measured at 380 nm excitation and 460 nm emission wavelengths.
experimental.readout: pIC50
Give only the number. pIC50 is defined as minus log10 of concentration in molar units.

compound="Cc1c(-c2cccc(C(F)F)c2)c(=O)c(C(=O)NCc2ccc(S(C)(=O)=O)cc2)cn1C1CCOC1 (configuration not stated)" target_under_test="Neutrophil elastase (Homo sapiens)" numeric_value=7.57

## Task Let me know recorded pIC50 for `Cc1c(-c2cccc(C(F)(F)F)c2)c(=O)c(C(=O)NCc2ccc(S(C)(=O)=O)s2)cn1C(C)C` , thanks.
## Result 7.55
